B1: FBF1 (parent)
chain: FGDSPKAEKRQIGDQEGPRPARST

# Variants of: B1
# TEST_DESCRIPTION: protein stability index of a GFP-peptide fusion (GPS, HEK-293T) (PSI 1-6); higher = more stable;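 note: lentivirally expressed fusions sorted by FACS into six bins by GFP to DsRed ratio, PSI derived from sequencing read proportions per bin multiplied by bin number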
# STUDY_CONDITIONS: c terminus: a fixed tail appended
Would you mind labelling by protein stability index? At or over 5 is true, under is false.

1) FGDSPKAEKRQIGDQEGPNPARST [R19N] | true
2) FGDSPKAEKRQIGDQKGPRPARST [E16K] | false
3) FGDSPCAEKRQIGDQEGPRPARST [K6C] | true

Query: Is it the case that FGDSPKAEKRQIMDQEGPRPARST [G13M] has protein stability index reaching or exceeding 5?
Reply: false

Query: Does the reported protein stability index for FGYSPKAEKRQIGDQEGPRPARST [D3Y] fall at or above the 5 mark?
Reply: false

Query: Threshold query (protein stability index >= 5) on FGDSPKAEKRQIGDQEGPRPARGT [S23G]
Reply: true

Query: Confirm if protein stability index reported for the variant FGDSPKAEKRQIGDDEGPRPARST [Q15D] is 5 or above.
Reply: true

Query: Record FGDSPKAEKRGIGDQEGPRPARST [Q11G] ; criterion: protein stability index no lower than 5. Met?
Reply: true

Query: Textbook exercise: given the entry FGDSPKAEKRQIGDQEGPRGARST [P20G] , state whether its protein stability index is greater than or equal to 5.
Reply: false

Query: Is protein stability index for FGDSPKAEKRDIGDQEGPRPARST [Q11D] at or above 5?
Reply: true

Cited source for all entries: the supplement of paper PMC10567573
